assayed_target: CD71 on SK-BR-3 cells (human, UniProt P02786 1-760)
Sequence (P02786 whole entry): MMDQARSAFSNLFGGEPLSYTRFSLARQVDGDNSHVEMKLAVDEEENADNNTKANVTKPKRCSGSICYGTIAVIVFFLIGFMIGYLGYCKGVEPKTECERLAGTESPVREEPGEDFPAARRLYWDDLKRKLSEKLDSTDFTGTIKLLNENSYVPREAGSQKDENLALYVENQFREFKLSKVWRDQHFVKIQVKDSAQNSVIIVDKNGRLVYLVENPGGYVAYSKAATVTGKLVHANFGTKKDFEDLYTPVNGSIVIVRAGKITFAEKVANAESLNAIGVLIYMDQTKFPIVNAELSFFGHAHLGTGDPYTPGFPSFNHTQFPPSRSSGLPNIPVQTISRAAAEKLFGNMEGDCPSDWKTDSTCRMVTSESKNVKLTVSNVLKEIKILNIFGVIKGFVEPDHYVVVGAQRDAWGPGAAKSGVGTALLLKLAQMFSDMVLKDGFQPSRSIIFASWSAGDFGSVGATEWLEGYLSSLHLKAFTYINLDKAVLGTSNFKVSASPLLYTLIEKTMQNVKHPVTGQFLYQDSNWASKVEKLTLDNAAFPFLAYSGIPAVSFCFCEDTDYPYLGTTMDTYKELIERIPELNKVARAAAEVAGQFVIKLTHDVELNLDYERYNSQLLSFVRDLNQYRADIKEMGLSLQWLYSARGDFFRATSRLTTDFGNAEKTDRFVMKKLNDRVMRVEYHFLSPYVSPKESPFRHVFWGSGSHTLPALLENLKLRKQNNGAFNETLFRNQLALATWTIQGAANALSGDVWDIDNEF
procedure_details: cell-based or functional assay
Each record here notes measured IC50, SKBR-3 viability, MMAF conjugate, first unlabelled column (+/- human transferrin).
Give the quantity in nM, number only.

binder="SEQ ID NO 303 (designed binder, FN3 domain) MLPAPKNLVVSRVTEDSARLSWTAPDAAFDSFFIAYFEFANPGEAIVLTVPGSERSYDLTGLKPGTEYKVVIQGVKGGTPSEPLSAIFTT" endpoint_value=33

// next item, IC50, SKBR-3 viability, MMAF conjugate, first unlabelled column (+/- human transferrin) requested
Data request, read-out IC50, SKBR-3 viability, MMAF conjugate, first unlabelled column (+/- human transferrin), for SEQ ID NO 261 (designed binder, FN3 domain) MLPAPKNLVVSRVTEDSARLSWTAPDAAFDSFTIVYGEWGVPGEAIVLTVPGSERSYDLTGLKPGTEYDVWIEGVKGGDLSWPLSAIVTT
1.24
